- system under test: AMP-activated protein kinase, AMPK (Homo sapiens) (UniProt P54646+O43741+P54619+Q9UGJ0+Q9Y478+Q13131+Q9UGI9)
- assay notes: AMP-dependent Kinase enzyme assay. An in vitro enzyme assay that detects ADP turnover that is directly proportional to AMPK activity. This uses naive AMPK that is activated during the assay with MK-8722
- Type: functional
- Design: scale not given: direction of the effect not stated beside the values
- conditions: 30 µM
outcome measure: Percent Effect (%)
Give just the number in %; leave the unit off.

Worked examples, 6 compounds total:
Cc1nocc1C(=O)N1CCc2c(CN(C)C(C)C)n[nH]c2C1    -4.98
Cc1cc(CN2CCN(c3ccc4nncn4n3)C(C)C2)no1 (stereo not drawn)    -6.96
CN(C(=O)c1cccc(C(=O)NCC(F)(F)F)c1)c1ccccc1    -0.584
CCc1csc(C2CCCN(C(=O)c3ccc(OC)nn3)C2)n1 (stereo not drawn)    -35.3
Cc1cnn(CCNCc2nc(-c3ccccc3Cl)no2)c1    0.118
COCCN1C(=O)CC(N2CCN(c3ccc(OC)cc3)CC2)C1=O (stereo not drawn)    1.7

Ask: Endpoint output: Percent Effect of CSc1sc(NC(=O)Cc2c(C)nc(C)[nH]c2=O)nc1C . Value?
Reply: -7.94

Ask: Endpoint output: Percent Effect of CCC1CN(CC(=O)Nc2sccc2C#N)CCO1 (stereo not drawn) . Value?
Reply: -2.5

Ask: Endpoint output: Percent Effect of CN(C(=O)NCCCN1CCCC1)C1CCN(c2ccccc2)C1=O (stereo not drawn) . Value?
Reply: 2.15

Ask: Endpoint output: Percent Effect of Cc1ccc(CN(C)C(=O)CN2CCOC(Cn3cncn3)C2)o1 (stereo not drawn) . Value?
Reply: -6.86

Ask: Endpoint output: Percent Effect of O=C(c1cc[nH]n1)N1CCC(Nc2cccnn2)CC1 . Value?
Reply: 1.01

Ask: Endpoint output: Percent Effect of COCCc1noc(CNC2CCc3nc(C(C)C)nn3C2)n1 (stereo not drawn) . Value?
Reply: 8.06

Ask: Endpoint output: Percent Effect of CC(=O)Nc1nc(C(=O)N2CCCC(c3cc(C)[nH]n3)C2)cs1 (stereo not drawn) . Value?
Reply: -1.06

Ask: Endpoint output: Percent Effect of Cn1ncc2c(=O)[nH]c(CN3CCCC3CC3CCCCC3)nc21 (stereo not drawn) . Value?
Reply: -3.55

Ask: Endpoint output: Percent Effect of Cn1nc(CNC(=O)C2CCCC2)cc1C1CC1 . Value?
Reply: -2.49

Ask: Endpoint output: Percent Effect of COCCN1CCN(C(=O)c2ccncc2F)Cc2cccnc21 . Value?
Reply: 4.36

Ask: Endpoint output: Percent Effect of Cc1ccc(CNC(=O)N(Cc2ccccc2F)C2CC2)cn1 . Value?
Reply: 0.556

Ask: Endpoint output: Percent Effect of COCCN1CCCC(c2nc3c([nH]2)CC(C)(C)CNC3=O)C1 (stereo not drawn) . Value?
Reply: -1.1

Ask: Endpoint output: Percent Effect of Cc1ccc(CN2C[C@@H]3COC[C@@H](NS(C)(=O)=O)[C@@H]3C2)o1 . Value?
Reply: -0.569

Ask: Endpoint output: Percent Effect of Cc1noc(CN2Cc3ccccc3CC2c2nnc(C)o2)n1 (stereo not drawn) . Value?
Reply: 6.26

Ask: Endpoint output: Percent Effect of Cc1noc(C)c1-c1cccc(CC2CCN(C(=O)CCC(=O)O)C2)n1 (stereo not drawn) . Value?
Reply: 5.24

Ask: Endpoint output: Percent Effect of O=S(=O)(Nc1cnn(C2CCOCC2)c1)c1c(F)cccc1F . Value?
Reply: -13.6

----------
Entries and their measured Percent Effect follow.
- system under test: Tyrosyl-tRNA synthetase, putative (Trypanosoma cruzi (strain CL Brener)) (UniProt Q4DSP6)
- Sequence (Q4DSP6 as listed by the source): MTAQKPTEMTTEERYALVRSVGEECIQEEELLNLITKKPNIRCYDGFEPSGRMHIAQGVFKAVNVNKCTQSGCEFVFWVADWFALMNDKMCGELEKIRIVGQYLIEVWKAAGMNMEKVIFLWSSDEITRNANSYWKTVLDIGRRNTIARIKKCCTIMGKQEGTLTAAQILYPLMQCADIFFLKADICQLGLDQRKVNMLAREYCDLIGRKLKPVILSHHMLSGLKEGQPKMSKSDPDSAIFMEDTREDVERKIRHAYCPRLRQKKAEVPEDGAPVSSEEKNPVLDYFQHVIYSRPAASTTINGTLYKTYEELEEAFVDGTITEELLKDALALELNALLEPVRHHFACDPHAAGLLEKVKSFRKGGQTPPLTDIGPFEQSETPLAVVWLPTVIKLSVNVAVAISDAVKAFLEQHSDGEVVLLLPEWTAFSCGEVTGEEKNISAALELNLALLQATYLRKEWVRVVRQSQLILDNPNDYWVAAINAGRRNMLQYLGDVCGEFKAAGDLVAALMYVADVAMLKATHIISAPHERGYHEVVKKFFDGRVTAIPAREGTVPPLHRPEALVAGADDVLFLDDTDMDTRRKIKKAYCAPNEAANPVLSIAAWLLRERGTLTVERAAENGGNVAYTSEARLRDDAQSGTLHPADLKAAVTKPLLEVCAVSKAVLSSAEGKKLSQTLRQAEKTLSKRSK
- assay notes: Trypanosoma cruzi tyrosyl tRNA synthetase (TcYRS) SOP
- Format: functional
- Parameters: scale not given: direction of the effect not stated beside the values
- conditions: 30 µM
Give just the number in %; leave the unit off.

c1ccc(-c2ccc3nc(C4CCN(CC5CC5)CC4)nn3c2)cc1    3.7
Cc1nn(C)c(C)c1C1CCCN1C(=O)c1ccc(NC2CC2)nc1 (stereo unspecified)    18.3
O=C(N1CCOCC1)[C@@]12CCO[C@@H]1CCN(CCN1CCCCC1)C2    15.4
Cc1nc(Nc2ncccn2)cc(C2CCCN2CC(C)C)n1 (stereo unspecified)    6.41
Cc1noc(Cl)c1CC(=O)N1CCCC(n2cccn2)C1 (stereo unspecified)    16.1

Now let's try a different one.
Ask: Endpoint output: Percent Effect of CN(C)c1cc(CNC(=O)c2ccc(F)cc2F)ccn1 . Value?
Reply: 24.4

----------
- system under test: Protein translocase subunit SecA (Escherichia coli (strain K12)) (UniProt P10408)
- Sequence (P10408 whole entry): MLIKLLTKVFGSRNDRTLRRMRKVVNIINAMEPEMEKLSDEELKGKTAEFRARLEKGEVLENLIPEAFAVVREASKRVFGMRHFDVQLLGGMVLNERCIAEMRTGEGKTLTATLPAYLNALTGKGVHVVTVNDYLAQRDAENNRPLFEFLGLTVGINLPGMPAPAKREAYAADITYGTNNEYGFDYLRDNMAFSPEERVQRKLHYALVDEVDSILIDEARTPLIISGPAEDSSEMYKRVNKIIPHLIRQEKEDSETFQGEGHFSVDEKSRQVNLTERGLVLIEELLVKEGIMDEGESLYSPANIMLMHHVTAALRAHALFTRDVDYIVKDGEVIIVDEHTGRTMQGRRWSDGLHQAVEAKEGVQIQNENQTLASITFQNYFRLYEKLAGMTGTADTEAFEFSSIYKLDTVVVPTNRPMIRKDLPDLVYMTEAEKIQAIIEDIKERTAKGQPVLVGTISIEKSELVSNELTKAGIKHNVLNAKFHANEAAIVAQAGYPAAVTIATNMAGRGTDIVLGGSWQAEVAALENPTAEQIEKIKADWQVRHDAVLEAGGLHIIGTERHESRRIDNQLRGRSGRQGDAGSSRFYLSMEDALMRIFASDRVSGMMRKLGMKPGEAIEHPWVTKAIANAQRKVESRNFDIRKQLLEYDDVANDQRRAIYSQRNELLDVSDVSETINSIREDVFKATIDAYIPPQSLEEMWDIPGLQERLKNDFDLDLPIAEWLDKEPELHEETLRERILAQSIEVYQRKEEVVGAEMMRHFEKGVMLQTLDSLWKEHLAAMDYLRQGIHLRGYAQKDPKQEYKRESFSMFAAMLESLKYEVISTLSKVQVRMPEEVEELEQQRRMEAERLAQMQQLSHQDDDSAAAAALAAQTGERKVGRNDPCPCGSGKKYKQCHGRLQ
- assay notes: Assay to Identify E. coli SecA ATPase Inhibitors
- Type: functional
- Design: scale not given: direction of the effect not stated beside the values
- conditions: 30 µM
Potency and affinity values are given separately.
Entries and their measured Percent Effect follow.
Give just the number in %; leave the unit off.

Cc1noc(Cl)c1CC(=O)N1CCCC(n2cccn2)C1 (configuration not stated)    -7.2
Cc1ccc2c(c1)C1(CCNCC1)CN2C(=O)CN(C)C    -3.67
CCn1nc(CC(C)C)cc1C(=O)N1CC[C@@H](O)C1    -4.98
O=C(c1ccc(F)c(F)c1)N1CCCSCC1CN1CCCC1 (configuration not stated)    -3.82
CCc1ncnc2c1CCN(C(=O)N1CCCC1)CC2    -5.11

Ask: Endpoint output: Percent Effect of CCOC(CC)C(=O)NCCC(=O)N1CCN(c2ncccn2)CC1 (configuration not stated) . Value?
Reply: -2.66

Ask: Endpoint output: Percent Effect of O=C(CN1CCCCC1Cn1cncn1)NCCC1=CCCCC1 (configuration not stated) . Value?
Reply: -9.27

----------
Entries and their measured Percent Effect follow.
- system under test: Ubiquitin-activating enzyme e1, putative (Leishmania donovani (strain BPK282A1)) (UniProt E9BSI1)
- Sequence (E9BSI1 as listed by the source): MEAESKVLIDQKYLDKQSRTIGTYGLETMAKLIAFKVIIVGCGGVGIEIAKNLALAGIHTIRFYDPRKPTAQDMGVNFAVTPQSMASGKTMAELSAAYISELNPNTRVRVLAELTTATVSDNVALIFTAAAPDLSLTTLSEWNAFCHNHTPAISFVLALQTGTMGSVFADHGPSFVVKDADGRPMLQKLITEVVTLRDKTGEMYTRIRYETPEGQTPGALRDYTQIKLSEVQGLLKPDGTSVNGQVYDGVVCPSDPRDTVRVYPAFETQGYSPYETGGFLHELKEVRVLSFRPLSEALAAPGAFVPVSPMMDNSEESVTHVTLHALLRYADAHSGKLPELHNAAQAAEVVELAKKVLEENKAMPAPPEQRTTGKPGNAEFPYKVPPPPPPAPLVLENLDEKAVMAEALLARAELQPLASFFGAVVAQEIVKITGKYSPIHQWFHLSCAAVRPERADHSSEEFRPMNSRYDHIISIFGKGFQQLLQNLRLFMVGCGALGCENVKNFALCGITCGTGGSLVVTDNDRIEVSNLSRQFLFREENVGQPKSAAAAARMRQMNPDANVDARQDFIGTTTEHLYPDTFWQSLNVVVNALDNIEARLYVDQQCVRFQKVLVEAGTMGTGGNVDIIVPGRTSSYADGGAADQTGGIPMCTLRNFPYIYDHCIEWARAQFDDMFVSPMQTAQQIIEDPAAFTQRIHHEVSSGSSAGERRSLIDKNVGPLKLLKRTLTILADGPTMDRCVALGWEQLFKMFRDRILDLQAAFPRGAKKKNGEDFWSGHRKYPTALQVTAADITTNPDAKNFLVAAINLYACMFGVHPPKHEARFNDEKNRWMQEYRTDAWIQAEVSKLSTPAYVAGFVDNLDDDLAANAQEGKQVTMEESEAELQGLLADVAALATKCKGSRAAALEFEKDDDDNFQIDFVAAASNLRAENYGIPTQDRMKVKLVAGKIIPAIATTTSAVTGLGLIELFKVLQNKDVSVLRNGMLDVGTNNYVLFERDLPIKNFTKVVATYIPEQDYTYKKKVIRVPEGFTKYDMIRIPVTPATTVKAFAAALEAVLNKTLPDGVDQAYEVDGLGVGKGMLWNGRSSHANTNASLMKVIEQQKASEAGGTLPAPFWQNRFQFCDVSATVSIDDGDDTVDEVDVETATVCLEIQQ
- assay notes: Leishmania donovani Ubiquitin Activating Enzyme (LdE1)
- Type: functional
- Parameters: scale not given: direction of the effect not stated beside the values
- conditions: 30 µM
Results with a measured potency or affinity are listed apart.
Give just the number in %; leave the unit off.

Ask: Endpoint output: Percent Effect of CC(=O)N1CC[C@H]2OCC[C@@H](C(=O)N3CCCCO3)[C@@H]2C1 . Value?
Reply: 12

Ask: Endpoint output: Percent Effect of Cc1cnn(C2CN(CC(=O)Nc3cccnc3)C2)c1 . Value?
Reply: 7.89

Ask: Endpoint output: Percent Effect of O=C(c1ccncc1)N1CCCn2c(CN3CCCCC3)nnc2C1 . Value?
Reply: 2.67

Ask: Endpoint output: Percent Effect of O=C(c1cccc2[nH]ncc12)N1CCCC1c1noc(C2CC2)n1 (centres undefined) . Value?
Reply: 20.2

Ask: Endpoint output: Percent Effect of CCc1ncc(C(=O)NCCNC(=O)Cc2ccc(F)cc2)s1 . Value?
Reply: 8

Ask: Endpoint output: Percent Effect of CCCNC(=O)NC(=O)CN(CC(C)O)c1ccccc1 (centres undefined) . Value?
Reply: 10.4

Ask: Endpoint output: Percent Effect of CCn1cc(C(=O)NC2CCN(S(C)(=O)=O)CC2)c2ccccc21 . Value?
Reply: 16.2

Ask: Endpoint output: Percent Effect of O=C1COC2(CCN(Cc3cccs3)CC2)CN1c1ccccc1 . Value?
Reply: 5.48

----------
Entries and their measured Percent Effect follow.
- system under test: Ubiquitin-activating enzyme e1, putative (Leishmania donovani (strain BPK282A1))
- assay notes: Leishmania donovani Ubiquitin Activating Enzyme (LdE1)
- Type: functional
- Set-up: scale not given: direction of the effect not stated beside the values
- conditions: 30 µM
Results with a measured potency or affinity are listed apart.
Give just the number in %; leave the unit off.

Worked examples, 5 molecules total:
CCS(=O)(=O)CCN1CCCC1c1noc(C2CC2)n1 (stereo unspecified)    20.2
COCCN(Cc1ccc(F)cc1Cl)C(=O)c1ccc(=O)[nH]n1    6.94
CC(C)S(=O)(=O)N1CCC(c2cc3n(n2)[C@@H](C(F)(F)F)C[C@@H](C)N3)C1 (stereo partly specified)    5.33
Cc1nn(-c2ccccc2)nc1C(=O)N1CCCC1c1cnn(C)c1 (stereo unspecified)    0
Cc1ccc(-c2cc(N)c(=O)n(CC(=O)NC3CCCCC3)n2)s1    6.76

Ask: Endpoint output: Percent Effect of COc1ccc(C2(NC(=O)CCn3cncn3)CCCCC2)cc1 . Value?
Reply: 9.46

Ask: Endpoint output: Percent Effect of Cc1ncccc1NC(=O)[C@H]1C[C@@H]2CCN(Cc3nccs3)C[C@@H]2O1 . Value?
Reply: 10.8

Ask: Endpoint output: Percent Effect of CCn1c(Nc2ccccc2OC)nc2c(C)nn(C)c2c1=O . Value?
Reply: 6.67

Ask: Endpoint output: Percent Effect of CN(C)c1cc(CNC(=O)c2ccc(F)cc2F)ccn1 . Value?
Reply: 28.6

Ask: Endpoint output: Percent Effect of O=C(c1ccncc1)N1Cc2ccccc2OC2(CCOCC2)C1 . Value?
Reply: 9.46

Ask: Endpoint output: Percent Effect of O=C(c1ccccn1)N1CCCC(c2nccn2CC2CCC2)C1 (stereo unspecified) . Value?
Reply: 0
